Data provenance is the supplement of paper PMC6555819.

Known PBM binding z-score of a selection of sequences
system: RARb homodimer (NR concentration 270 nM); assay: PBM binding z-score (relative to random genomic background probes); higher = stronger binding; sequences stand for … in GC…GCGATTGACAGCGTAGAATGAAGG
Please state the value as a number alone, without comment.

Previously resolved entries follow.
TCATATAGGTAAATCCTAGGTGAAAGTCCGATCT :: 0.18
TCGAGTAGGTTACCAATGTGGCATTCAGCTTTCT :: -0.0137
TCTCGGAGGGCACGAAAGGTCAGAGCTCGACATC :: 5.03
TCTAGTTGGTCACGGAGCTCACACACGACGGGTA :: 0.591
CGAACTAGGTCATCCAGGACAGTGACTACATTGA :: 3.11

Q. # lookup: PBM binding z-score of `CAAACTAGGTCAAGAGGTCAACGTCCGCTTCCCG`
A. 5.63

Q. # lookup: PBM binding z-score of `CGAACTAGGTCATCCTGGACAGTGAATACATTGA`
A. 2.86

Q. # lookup: PBM binding z-score of `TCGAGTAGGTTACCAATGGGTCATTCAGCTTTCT`
A. 2.41
